# assayInfo: chemical genetic growth profiling, strain panel (AID 1159580);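 note: tested at 20 µM; growth read once vehicle control cultures reached saturation at 30 °C; 1 = growth at the plate median or of vehicle wells; lower values mean less growth of the strain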
# particulars: S. cerevisiae deletion strains, growth OD, locus YKL193C, strain SDS22, hits give low values
Out of some 5,500 compounds screened, about 2,000 (36%) were called active. Another 18% or so got no clear call; they are omitted. The list shows a part of the results.
endpointName: normalized growth

See these solved cases before continuing.
{"molecule": "O=C(c1cccs1)N(Cc1cccnc1)Cc1ccc(Cl)cc1Cl", "normalized growth": "0.969 (inactive)"}
{"molecule": "O=C(Nc1ccccc1Sc1ccc([N+](=O)[O-])cc1[N+](=O)[O-])C(Cl)(Cl)Cl", "normalized growth": "0.965 (inactive)"}
{"molecule": "S=C(Nc1ccc(Cl)cc1)SCc1c(Cl)cccc1Cl", "normalized growth": "0.978 (inactive)"}

Please supply normalized growth for each of the following items, keeping them in order.
1. CCOC(=O)c1cc(CC)sc1NC(=O)c1ccc([N+](=O)[O-])o1
2. Cc1nc(-c2ccccn2)nc(SCc2ccccc2)c1Cl

["0.98 (inactive)", "0.937 (inactive)"]
